# Tested on: U251 CNS
Thanks in advance; please answer with one of these: active, inactive

For this compound, state the assay outcome: Cc1cc(NC(=O)NCc2ccc(N3C(N)=NC(N)=NC3(C)C)cc2)ccc1S(=O)(=O)F inactive

For this compound, state the assay outcome: CC(=O)ON(OCc1ccc2ccccc2c1)C(C)=O inactive

For this compound, state the assay outcome: COc1ccc2nc3ccccc3c(NCCNCCO)c2c1 inactive

For this compound, state the assay outcome: NC(=NCCCCCCN=C(N)/N=C(\N)Nc1ccc(Cl)cc1)/N=C(\N)Nc1ccc(Cl)cc1 inactive

For this compound, state the assay outcome: CC1(C)N=C(N)N=C(N)N1c1ccc(CCCC(=O)Nc2ccc(S(=O)(=O)F)cc2)cc1 inactive

For this compound, state the assay outcome: COc1ccc(-c2nsc3c2NC(=O)CC3c2ccsc2)cc1 (stereo not given) active

For this compound, state the assay outcome: CCCCNc1ncnc2c1cnn2-c1ccccc1 inactive

For this compound, state the assay outcome: CNC(=O)CCN1CCN(CC/C=C2\c3ccccc3Sc3ccc(Cl)cc32)CC1 inactive

For this compound, state the assay outcome: Nc1nc(SCc2ccccc2CCl)c2[nH]cnc2n1 inactive

For this compound, state the assay outcome: CC(C)=C[C@@H]1C[C@H](C)[C@H]2CC[C@H](C)c3c(O)c(OC4OC(C)C(O)C(O)C4O)c(C)c1c32 (stereo not given in full) inactive

###

# Test system: EKVX NSCLC
# procedure details: NCI tumour cell line growth inhibition, 48 h; in the data active = GI50 below about 0.43 µM; inactive = the rest
Thanks in advance; please answer with one of these: yes = active, no = inactive

For this compound, state the assay outcome: [Br][Pb]([c]1ccccc1)([c]1ccccc1)[c]1ccccc1 yes

For this compound, state the assay outcome: CC[C@H](C)[C@H](NC(=O)C12C3C4C1C1C2C3C41NC)C(=O)N(C)[C@H](C[C@@H](OC(C)=O)c1nc(C(=O)N[C@@H](Cc2ccccc2)C[C@H](C)C(=O)OC)cs1)C(C)C (stereo not given in full) no

For this compound, state the assay outcome: CN1C2C=CC(=O)C1C1C(=O)N(c3ccccc3)C(=O)C12 (stereo not given) no

For this compound, state the assay outcome: NNc1c(C(N)=O)c2c(N)ncnc2n1C1OC(CO)C(O)C1O (stereo not given) yes

For this compound, state the assay outcome: Nc1nc(SCc2ccccc2CCl)c2[nH]cnc2n1 no

For this compound, state the assay outcome: Cc1cc(NC(=O)NCc2ccc(N3C(N)=NC(N)=NC3(C)C)cc2)ccc1S(=O)(=O)F no

For this compound, state the assay outcome: [O]=[Sn]([CH]1CCCCC1)[CH]1CCCCC1 yes

For this compound, state the assay outcome: CCCS(=O)(=O)Nc1ccc(F)c(C(=O)c2c[nH]c3ncc(-c4ccc(OCCCC5CCCCN5)nc4)cc23)c1F (stereo not given) no

For this compound, state the assay outcome: NC(=NCCCCCCN=C(N)/N=C(\N)Nc1ccc(Cl)cc1)/N=C(\N)Nc1ccc(Cl)cc1 no

For this compound, state the assay outcome: CCSC[C@@H]1C[C@](O)(c2ccccc2)[C@@H](c2ccccc2)O1 no

For this compound, state the assay outcome: N#C[S-].[La+3].c1ccc(-c2ccccn2)nc1.c1ccc(-c2ccccn2)nc1.c1ccc(-c2ccccn2)nc1 no

For this compound, state the assay outcome: COc1cc(C2CC(c3ccccc3)=NN2C=O)ccc1Oc1ccnc2cc(Cl)ccc12 (stereo not given) no

For this compound, state the assay outcome: COc1ccc2nc3ccccc3c(NCCNCCO)c2c1 no

For this compound, state the assay outcome: S=c1ssnc1-c1cc2ccccc2o1 no

For this compound, state the assay outcome: Cc1cc(N2CCC(N3CCCC3)CC2)nc(/N=C(\N)Nc2ccc(Cl)c(Cl)c2)n1 no
